Catalogue of compounds with associated Kd
assay.system: Estrogen receptor (Homo sapiens, UniProt P03372)
Sequence (P03372 whole entry, the tested form may be a part): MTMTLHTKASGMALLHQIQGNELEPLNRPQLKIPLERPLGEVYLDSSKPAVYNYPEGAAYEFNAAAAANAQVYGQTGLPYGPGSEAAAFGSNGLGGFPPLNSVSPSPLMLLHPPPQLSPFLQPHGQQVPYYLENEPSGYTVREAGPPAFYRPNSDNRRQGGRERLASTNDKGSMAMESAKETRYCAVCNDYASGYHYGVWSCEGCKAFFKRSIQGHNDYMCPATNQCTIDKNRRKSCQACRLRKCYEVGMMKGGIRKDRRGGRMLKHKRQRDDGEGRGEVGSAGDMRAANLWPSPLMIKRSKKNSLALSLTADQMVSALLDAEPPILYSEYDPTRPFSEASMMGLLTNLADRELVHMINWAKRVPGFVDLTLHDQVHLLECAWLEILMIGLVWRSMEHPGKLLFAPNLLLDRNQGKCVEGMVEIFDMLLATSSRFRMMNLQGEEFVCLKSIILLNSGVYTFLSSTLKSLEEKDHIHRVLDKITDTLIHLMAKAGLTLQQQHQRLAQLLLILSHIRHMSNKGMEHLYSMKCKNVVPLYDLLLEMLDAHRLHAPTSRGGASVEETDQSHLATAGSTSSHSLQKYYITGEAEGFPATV
experimental.details: Binding affinity to recombinant human ERalpha LBD (301 to 553 residues) expressed in Escherichia coli BL21(DE3) by surface plasmon resonance method
Positions of bridges follow the written chain, without caps; N, C: chain ends. Non-standard residues stand in square brackets, D forms with d. Residues, ends and D or L forms follow the SMILES beside them. S5 = C=CCCC[C@](C)(N)C(=O)O
Provide only the numeric value, understood in nM.

compound	val
CC[C@H](C)[C@H](NC(=O)[C@H](CCCCN)NC(=O)[C@H](Cc1cnc[nH]1)NC(C)=O)C(=O)N[C@@H](CC(C)C)C(=O)N[C@@H](Cc1cnc[nH]1)C(=O)N[C@@H](CCC(N)=O)C(=O)N[C@@H](CC(C)C)C(=O)N[C@@H](CC(C)C)C(=O)N[C@@H](CCC(N)=O)C(=O)N[C@@]1(C)CCC/C=C\CCC[C@@](C)(C(=O)N[C@H](C(N)=O)C(C)C)NC(=O)[C@H](CO)NC(=O)[C@H](CO)NC(=O)[C@H](CO)NC1=O (Ac-HKILHQLLQ[S5]SSS[S5]V-NH2; staple (Z) 10-14)	4000

Inquiry: Kd lookup needed for CC[C@H](C)[C@@H]1NC(=O)[C@@](C)(NC(=O)[C@H](Cc2cnc[nH]2)NC(C)=O)CCC/C=C\CCC[C@@](C)(C(=O)N[C@@H](CC(C)C)C(=O)N[C@@H](CC(C)C)C(=O)N[C@@H](CCC(N)=O)C(=O)N[C@@H](CC(=O)O)C(=O)N[C@@H](CO)C(N)=O)NC(=O)[C@H](Cc2cnc[nH]2)NC(=O)[C@H](CC(C)C)NC1=O (Ac-H[S5]ILH[S5]LLQDS-NH2; staple (Z) 2-6) , thanks.
Reply text: 674

Inquiry: Now consider CC[C@H](C)[C@H](NC(=O)[C@H](CCCCN)NC(=O)[C@H](Cc1cnc[nH]1)NC(C)=O)C(=O)N[C@@H](CC(C)C)C(=O)N[C@@H](Cc1cnc[nH]1)C(=O)N[C@@H](CCCNC(=N)N)C(=O)N[C@@H](CC(C)C)C(=O)N[C@@H](CC(C)C)C(=O)N[C@@H](CCC(N)=O)C(=O)N[C@@H](CC(=O)O)C(=O)N[C@@H](CO)C(N)=O (Ac-HKILHRLLQDS-NH2) and answer again.
Reply text: 2500

Inquiry: Now consider CC(=O)N[C@@H](Cc1cnc[nH]1)C(=O)N[C@@H](CCCCN)C(=O)N[C@@]1(C)CCC/C=C\CCC[C@@](C)(C(=O)N[C@@H](CC(C)C)C(=O)N[C@@H](CCC(N)=O)C(=O)N[C@@H](CC(=O)O)C(=O)N[C@@H](CO)C(N)=O)NC(=O)[C@H](CCC(N)=O)NC(=O)[C@H](Cc2cnc[nH]2)NC(=O)[C@H](CC(C)C)NC1=O (Ac-HK[S5]LHQ[S5]LQDS-NH2; staple (Z) 3-7) and answer again.
Reply text: 352

Inquiry: Now consider CC[C@H](C)[C@H](NC(=O)[C@H](CCCCN)NC(=O)[C@]1(C)CCC/C=C\CCC[C@](C)(NC(C)=O)C(=O)N[C@@H](CCCCN)C(=O)N[C@@H](CCC(=O)O)C(=O)N[C@@H](CCCCN)C(=O)N1)C(=O)N[C@@H](CC(C)C)C(=O)N[C@@H](Cc1cnc[nH]1)C(=O)N[C@@H](CCC(N)=O)C(=O)N[C@@H](CC(C)C)C(=O)N[C@@H](CC(C)C)C(=O)N[C@@H](CCC(N)=O)C(=O)N[C@@H](CC(=O)O)C(=O)N[C@@H](CO)C(N)=O (Ac-[S5]KEK[S5]KILHQLLQDS-NH2; staple (Z) 1-5) and answer again.
Reply text: 8000

Inquiry: Now consider CC[C@H](C)[C@H](NC(=O)[C@H](CCCCN)NC(=O)[C@H](Cc1cnc[nH]1)NC(=O)[C@H](CCCCN)NC(=O)[C@H](CCC(=O)O)NC(C)=O)C(=O)N[C@@H](CC(C)C)C(=O)N[C@@]1(C)CCC/C=C\CCC[C@@](C)(C(=O)N[C@@H](CC(=O)O)C(=O)N[C@@H](CO)C(N)=O)NC(=O)[C@H](CC(C)C)NC(=O)[C@H](CC(C)C)NC(=O)[C@H](CCCNC(=N)N)NC1=O (Ac-EKHKIL[S5]RLL[S5]DS-NH2; staple (Z) 7-11) and answer again.
Reply text: 75
